molecular target: Two Pore Channel 2 (TPC2) (Homo sapiens, UniProt Q8NHX9, L11A/L12A); construct: EGFP-tagged plasma membrane-targeted TPC2 L11A/L12A; test: inside-out patch clamp, HEK293, concentration response
Sequence (Q8NHX9 whole entry L11A/L12A): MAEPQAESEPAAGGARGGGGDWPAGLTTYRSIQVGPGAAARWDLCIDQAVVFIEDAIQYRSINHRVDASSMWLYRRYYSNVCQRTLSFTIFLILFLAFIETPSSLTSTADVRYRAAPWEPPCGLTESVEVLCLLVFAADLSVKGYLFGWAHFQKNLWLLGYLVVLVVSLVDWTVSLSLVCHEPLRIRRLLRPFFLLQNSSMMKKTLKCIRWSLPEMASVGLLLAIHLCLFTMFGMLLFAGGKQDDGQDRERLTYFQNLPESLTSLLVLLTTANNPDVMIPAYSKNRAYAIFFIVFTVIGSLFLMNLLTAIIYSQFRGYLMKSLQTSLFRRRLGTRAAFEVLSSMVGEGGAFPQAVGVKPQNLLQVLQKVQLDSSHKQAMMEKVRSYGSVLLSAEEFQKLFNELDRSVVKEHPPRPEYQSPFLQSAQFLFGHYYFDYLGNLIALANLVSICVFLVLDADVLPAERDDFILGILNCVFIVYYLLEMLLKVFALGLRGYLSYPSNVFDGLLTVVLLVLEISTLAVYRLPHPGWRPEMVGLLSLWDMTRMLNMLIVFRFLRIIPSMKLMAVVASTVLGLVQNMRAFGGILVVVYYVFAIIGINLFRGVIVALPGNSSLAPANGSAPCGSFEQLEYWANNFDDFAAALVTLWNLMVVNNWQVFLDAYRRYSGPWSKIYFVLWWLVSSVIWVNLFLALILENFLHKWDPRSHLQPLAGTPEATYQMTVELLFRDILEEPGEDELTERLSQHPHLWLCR
parameter-measured: pEC50
On this scale, pEC50 is minus log10 of a concentration expressed in M (mol/L).

Query string: Query the reported pEC50 for Two Pore Channel 2 (TPC2) (Homo sapiens, UniProt Q8NHX9, L11A/L12A); item: CCCCCCCC(=O)OC[C@H](COP(=O)(O)O[C@@H]1[C@H](O)[C@H](OP(=O)(O)O)[C@@H](O)[C@H](OP(=O)(O)O)[C@H]1O)OC(=O)CCCCCCC [PI(3,5)P2-diC8]
Result string: 6.68

----------
biological target: Two Pore Channel 2 (TPC2), R210A (Homo sapiens, UniProt Q8NHX9, R210A); assay: channel activation EC50 (n = […], data not shown in figures)
Sequence (Q8NHX9 whole entry R210A): as the sequence (Q8NHX9 whole entry L11A/L12A) above, with A11L, A12L, R210A counted along it
parameter-measured: pEC50
On this scale, pEC50 is minus log10 of a concentration expressed in M (mol/L).

Query string: Need pEC50, item CCCCCCCC(=O)OC[C@H](COP(=O)(O)O[C@@H]1[C@H](O)[C@H](OP(=O)(O)O)[C@@H](O)[C@H](OP(=O)(O)O)[C@H]1O)OC(=O)CCCCCCC [PI(3,5)P2-diC8]
Result string: 7.71
